log10(TGI) values, listed per item
# Test system: CAKI-1 renal
# Procedure details: NCI tumour cell line growth inhibition, 48 h
Reported property: log10(TGI) (log10 of the value in µM)

[[record]]
compound = "Nc1ccc2c(c1)[O][Sn]([c]1ccccc1)([c]1ccccc1)[O]C2=O"
reported_measurement = 1.02

[[record]]
compound = "O=C1CC(O)c2c(Cl)sc(Cl)c21 (configuration not stated)"
reported_measurement = 0.99

[[record]]
compound = "COc1ccc2nc3c([N+](=O)[O-])ccc4c3c(c2c1)NCCN4C"
reported_measurement = 0.96

[[record]]
compound = "CC(SC1=CC(=O)c2c(O)ccc(O)c2C1=O)C(=O)O (configuration not stated)"
reported_measurement = 1.86

[[record]]
compound = "CCCCCCCCCCCC(=O)C1=C(O)C(O)CCC1=O (configuration not stated)"
reported_measurement = 1.85

[[record]]
compound = "CC1(C)C(=O)/C(=C\\c2ccco2)C[C@]2(C)[C@H]3CC=C4[C@@H]5C[C@](C)(C(=O)O)CC[C@]5(C)CC[C@@]4(C)[C@]3(C)CC[C@@H]12"
reported_measurement = 1.45

[[record]]
compound = "c1ccc(COc2ccc3[nH]c4c(ncc5[nH]c6ccccc6c54)c3c2)cc1"
reported_measurement = 1.68

[[record]]
compound = "C=C1C(=O)O[C@H]2[C@H]1CC/C(COC(=O)c1ccc(C(=O)O)s1)=C\\CC[C@@]1(C)O[C@@H]21"
reported_measurement = 0.49

[[record]]
compound = "CCn1c2c(c3c(C(=O)OC)c(O)ccc31)C(=O)c1ccccc1C2=O"
reported_measurement = 1.98


====

# Test system: U251 CNS
# Procedure details: NCI tumour cell line growth inhibition, 48 h
Reported property: TGI

[[record]]
compound = "COc1ccc(N=C/C=C/Nc2ccc(OC)cc2)cc1"
reported_property = "TGI"
reported_measurement = "10.2 µM"

[[record]]
compound = "CC(C)(C)C([O-])=C1C(=O)c2ccccc2C1=O.CC(C)(C)C([O-])=C1C(=O)c2ccccc2C1=O.CC[O-].CC[O-].[Ti+4]"
reported_property = "TGI"
reported_measurement = "> 100 µM"

[[record]]
compound = "COc1cccc2c1C1=CC(=O)CCC1C(C)(C)O2 (stereo unspecified)"
reported_property = "TGI"
reported_measurement = "> 100 µM"

[[record]]
compound = "CN(C)CN1C(=O)S/C(=C2\\C(=O)N(CN(C)C)c3ccccc32)C1=O"
reported_property = "TGI"
reported_measurement = "> 100 µM"

[[record]]
compound = "Cc1ccc(-n2c(C)nc3c2C(=O)c2ccccc2C3=O)cc1"
reported_property = "TGI"
reported_measurement = "> 100 µM"

[[record]]
compound = "CC1=C(C#N)S(=O)(=O)c2c(oc(C)c2C)N1"
reported_property = "TGI"
reported_measurement = "> 100 µM"

[[record]]
compound = "N#CC(c1ccccc1)c1cccc2ccccc12 (stereo unspecified)"
reported_property = "TGI"
reported_measurement = "> 100 µM"

[[record]]
compound = "COc1cc(C2c3cc4c(cc3OC(N3CCOCC3)C2C)OCO4)cc(OC)c1O (stereo unspecified)"
reported_property = "TGI"
reported_measurement = "> 53.6 µM"

[[record]]
compound = "CC[C@H]1C=CCC[C@@]2(C[C@@H]3CC[C@@H]4[C@H](C(=O)OCCCCCCCCCCCCCCCC(=O)N(CCCN)C[C@@H](O)CCN)[C@]5(CCC[C@@H](C)O5)NC(=[N+]34)N2)O1"
reported_property = "TGI"
reported_measurement = "1.68 µM"

[[record]]
compound = "O=C1CC(c2cccc(Cl)c2)n2cccc21 (stereo unspecified)"
reported_property = "TGI"
reported_measurement = "> 100 µM"

[[record]]
compound = "NC(N)=NNC(=O)C(=O)O"
reported_property = "TGI"
reported_measurement = "> 100 µM"

[[record]]
compound = "CSc1n[n+](C)cc(N)c1N"
reported_property = "TGI"
reported_measurement = "> 100 µM"

[[record]]
compound = "CC1(C)CCOC(=O)C(Cl)CC1Cl (stereo unspecified)"
reported_property = "TGI"
reported_measurement = "> 100 µM"

[[record]]
compound = "CCCN(CCCCC(NC(C)=O)C(=O)NCc1ccccc1)C(=O)NC (stereo unspecified)"
reported_property = "TGI"
reported_measurement = "> 100 µM"

[[record]]
compound = "COc1ccc2c(C3(O)CCNCC3)c[nH]c2c1"
reported_property = "TGI"
reported_measurement = "> 100 µM"

[[record]]
compound = "CC1(C)OC2C(=O)OC(COCc3ccccc3)C2O1 (stereo unspecified)"
reported_property = "TGI"
reported_measurement = "> 100 µM"

[[record]]
compound = "Clc1ccc(OCc2nnc(CCCCCCCCc3nnc(COc4ccc(Cl)cc4Cl)o3)o2)c(Cl)c1"
reported_property = "TGI"
reported_measurement = "> 100 µM"

[[record]]
compound = "CCCCCCCCCCCCC(SCCNC(=O)CCNC(=O)C(O)C(C)(C)COP(=O)(O)OP(=O)(O)OCC1OC(n2cnc3c(N)ncnc32)C(O)C1OP(=O)(O)O)C(=O)NCC(N)=O (stereo unspecified)"
reported_property = "TGI"
reported_measurement = "> 100 µM"

[[record]]
compound = "CCCCCCCCOCC1S(=O)(=O)OCCOS1(=O)=O"
reported_property = "TGI"
reported_measurement = "> 100 µM"

[[record]]
compound = "O=[N+]([O-])/C=C\\c1ccc2c(c1)OCO2"
reported_property = "TGI"
reported_measurement = "5.02 µM"

[[record]]
compound = "CC(NC(=O)c1ccc(OP(=O)(OCC2=CC(=O)c3ccccc3C2=O)N(C)CCCCCl)cc1)c1ccc(OCC2CCCCC2)c(C(N)=O)c1 (stereo unspecified)"
reported_property = "TGI"
reported_measurement = "22.3 µM"


====

# System: LOX IMVI melanoma
# Procedure details: NCI tumour cell line growth inhibition, 48 h
Reported property: TGI

[[record]]
molecule = "CCn1c2c(c3c(C(=O)OC)c(O)ccc31)C(=O)c1ccccc1C2=O"
target_of_assay = "LOX IMVI melanoma"
reported_measurement = "71.6 µM"

[[record]]
molecule = "Cc1cc2occ(C)c(=O)c2c2c1OC(C)(C)S2"
target_of_assay = "LOX IMVI melanoma"
reported_measurement = "> 100 µM"

[[record]]
molecule = "C/C(=C\\CCC1=CC(=O)OC1)CC[C@@H]1[C@H]2C(=O)CC(C)[C@@]3(C)CC[C@]1(C)[C@@]23C (some centres undefined)"
target_of_assay = "LOX IMVI melanoma"
reported_measurement = "> 10 µM"

[[record]]
molecule = "CCOC(=O)/C(C1=CC(=O)C(=O)c2ccccc21)=C(/C)NCc1ccccc1"
target_of_assay = "LOX IMVI melanoma"
reported_measurement = "2.36 µM"

[[record]]
molecule = "CC1(C)C2CCC1C(=O)C(C=O)C2 (centres undefined)"
target_of_assay = "LOX IMVI melanoma"
reported_measurement = "> 100 µM"

[[record]]
molecule = "Cn1c(N/N=C/c2ccc(Cl)cc2)nc(-c2ccc(Cl)cc2)c(C#N)c1=O"
target_of_assay = "LOX IMVI melanoma"
reported_measurement = "57.6 µM"

[[record]]
molecule = "ClCCn1cnc2c(SCc3ccccc3)ncnc21"
target_of_assay = "LOX IMVI melanoma"
reported_measurement = "18.6 µM"

[[record]]
molecule = "O=C1NC(=O)C(c2ccccc2Cl)=C1Nc1cccc(O)c1"
target_of_assay = "LOX IMVI melanoma"
reported_measurement = "> 25 µM"

[[record]]
molecule = "COc1ccc(/C=[N+](\\[O-])[C@H](COCc2ccccc2)c2ccccc2)cc1"
target_of_assay = "LOX IMVI melanoma"
reported_measurement = "> 100 µM"

[[record]]
molecule = "CN(C)CCOc1ccc(-c2c(Oc3ccc(Cl)cc3)c(=O)oc3ccccc23)cc1"
target_of_assay = "LOX IMVI melanoma"
reported_measurement = "> 35.7 µM"

[[record]]
molecule = "CN(C)CN1C(=O)S/C(=C2\\C(=O)N(CN(C)C)c3ccccc32)C1=O"
target_of_assay = "LOX IMVI melanoma"
reported_measurement = "73.2 µM"

[[record]]
molecule = "CC(C)(C)N=CN1CCC(C(c2ccccc2)c2ccccc2)CC1"
target_of_assay = "LOX IMVI melanoma"
reported_measurement = "> 100 µM"

[[record]]
molecule = "OC1CCC(Oc2cccc3cnc(Nc4ccc5nc[nH]c5c4)nc23)CC1 (centres undefined)"
target_of_assay = "LOX IMVI melanoma"
reported_measurement = "11.4 µM"

[[record]]
molecule = "CC1(C)CCOC(=O)C(Cl)CC1Cl (centres undefined)"
target_of_assay = "LOX IMVI melanoma"
reported_measurement = "> 100 µM"

[[record]]
molecule = "NC(=O)c1ccccc1NC(=O)C(=O)C(c1cnc2ccc([N+](=O)[O-])cc2n1)[N+](=O)[O-] (centres undefined)"
target_of_assay = "LOX IMVI melanoma"
reported_measurement = "> 100 µM"

[[record]]
molecule = "COc1cccc(-c2cc(=O)c3cc(C)cnc3[nH]2)c1"
target_of_assay = "LOX IMVI melanoma"
reported_measurement = "> 100 µM"

[[record]]
molecule = "CC1=C(C#N)S(=O)(=O)c2c(oc(C)c2C)N1"
target_of_assay = "LOX IMVI melanoma"
reported_measurement = "> 100 µM"

[[record]]
molecule = "CCN(CC)C(=S)SSC1CCCCC1"
target_of_assay = "LOX IMVI melanoma"
reported_measurement = "24.3 µM"

[[record]]
molecule = "CSc1n[n+](C)cc(N)c1N"
target_of_assay = "LOX IMVI melanoma"
reported_measurement = "> 100 µM"

[[record]]
molecule = "Cc1ccc(-c2cc3nc(-c4ccccc4)nc(C(Cl)Cl)n3n2)cc1"
target_of_assay = "LOX IMVI melanoma"
reported_measurement = "> 50 µM"

[[record]]
molecule = "C=C[C@H]1CN2CC[C@H]1C[C@@H]2[C@@H](O)c1ccnc2ccccc12"
target_of_assay = "LOX IMVI melanoma"
reported_measurement = "> 100 µM"

[[record]]
molecule = "CCOC(=O)c1c2ccc(/C=C/C(=O)OC)ccc-2c(C(=O)OCC)c1N"
target_of_assay = "LOX IMVI melanoma"
reported_measurement = "> 100 µM"

[[record]]
molecule = "Cc1c2ncccc2c(C)c2c1[nH]c1ccccc12"
target_of_assay = "LOX IMVI melanoma"
reported_measurement = "20.8 µM"

[[record]]
molecule = "CC(=O)C(=C(I)I)c1ccccc1"
target_of_assay = "LOX IMVI melanoma"
reported_measurement = "49.1 µM"

[[record]]
molecule = "c1ccc2c(c1)SC1Sc3ccccc3[S+]21 (centres undefined)"
target_of_assay = "LOX IMVI melanoma"
reported_measurement = "45.6 µM"

[[record]]
molecule = "NC(N)=NNC(=O)C(=O)O"
target_of_assay = "LOX IMVI melanoma"
reported_measurement = "> 100 µM"

[[record]]
molecule = "Cc1nc2ccccc2n1CCc1nc2ccccc2s1"
target_of_assay = "LOX IMVI melanoma"
reported_measurement = "> 100 µM"

[[record]]
molecule = "Cc1c(C(=O)CC(=O)C(=O)NC2C3CC4CC(C3)CC2C4)[n+](=O)c2ccccc2n1[O-] (centres undefined)"
target_of_assay = "LOX IMVI melanoma"
reported_measurement = "> 100 µM"

[[record]]
molecule = "CCCN(CCC)c1c([N+](=O)[O-])cc(S(N)(=O)=O)cc1[N+](=O)[O-]"
target_of_assay = "LOX IMVI melanoma"
reported_measurement = "31.6 µM"

[[record]]
molecule = "CCOC(=O)/C=C(/C(=O)OCC)n1cc(C)c(=O)n(Cc2cnnn2CCCCOC(C)=O)c1=O"
target_of_assay = "LOX IMVI melanoma"
reported_measurement = "41 µM"

[[record]]
molecule = "CC(=O)Oc1ccc2c(c1)CC[C@@H]1C2[C@@H](O[N+](=O)[O-])C[C@@]2(C)C1CC[C@@H]2O (some centres undefined)"
target_of_assay = "LOX IMVI melanoma"
reported_measurement = "> 81.2 µM"

[[record]]
molecule = "COc1ccc(N=C/C=C/Nc2ccc(OC)cc2)cc1"
target_of_assay = "LOX IMVI melanoma"
reported_measurement = "5.45 µM"

[[record]]
molecule = "CCc1cccc(C)c1NC(=O)CC1Sc2ccccc2NC1=O (centres undefined)"
target_of_assay = "LOX IMVI melanoma"
reported_measurement = "> 100 µM"

[[record]]
molecule = "COC(=O)c1c(O)ccc2c1c1c(n2C)C(=O)c2ccccc2C1=O"
target_of_assay = "LOX IMVI melanoma"
reported_measurement = "> 100 µM"

[[record]]
molecule = "Cc1cc(O)cc(C)c1/C=C/c1cncc(C(=O)N(C)C)c1"
target_of_assay = "LOX IMVI melanoma"
reported_measurement = "> 25 µM"

[[record]]
molecule = "CCCCCCCCOCC1S(=O)(=O)OCCOS1(=O)=O"
target_of_assay = "LOX IMVI melanoma"
reported_measurement = "> 100 µM"

[[record]]
molecule = "Cn1cc(NC(=O)c2cc(NC(=O)CCCCCC(=O)Nc3cc(C(=O)Nc4cc(C(=O)NCCC(=N)N)n(C)c4)n(C)c3)cn2C)cc1C(=O)NCCC(=N)N"
target_of_assay = "LOX IMVI melanoma"
reported_measurement = "> 100 µM"

[[record]]
molecule = "Cc1ccc2c(c1)sc(-c1ccc(N(C)C)cc1)[n+]2C"
target_of_assay = "LOX IMVI melanoma"
reported_measurement = "21.8 µM"

[[record]]
molecule = "O=S1(=O)c2ccccc2N2CCCc3cc(Cl)cc1c32"
target_of_assay = "LOX IMVI melanoma"
reported_measurement = "> 100 µM"

[[record]]
molecule = "O=C(c1ccco1)N(C(=S)N1CCN(c2ccccc2)CC1)c1ccccc1"
target_of_assay = "LOX IMVI melanoma"
reported_measurement = "> 100 µM"

[[record]]
molecule = "Clc1ccc(-c2nc(-c3ccc(Cl)cc3)[s+]s2)cc1"
target_of_assay = "LOX IMVI melanoma"
reported_measurement = "> 100 µM"

[[record]]
molecule = "COc1cccc2c1C1=CC(=O)CCC1C(C)(C)O2 (centres undefined)"
target_of_assay = "LOX IMVI melanoma"
reported_measurement = "> 100 µM"

[[record]]
molecule = "Cc1ccc2c3c1O[C@H]1c4nc5ccccc5cc4C[C@@]4(O)[C@@H](C2)N(CC2CC2)CC[C@]314"
target_of_assay = "LOX IMVI melanoma"
reported_measurement = "17 µM"

[[record]]
molecule = "COC(=O)/C=C1/OC(c2ccccc2)=C(Cl)C1=O"
target_of_assay = "LOX IMVI melanoma"
reported_measurement = "26.8 µM"

